Value source: paper PMC5540273

system: AURKC; conditions: concentration: 1 μM, replicates: in singlicate; n = 1;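 further: KINOMEscan kinase panel screen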
// boundary case: %Inh equal to 60% maps to NO; strictly smaller maps to YES

Answered examples (2):
- Cc1cccc(Nc2nc(N[C@H]3CCCC[C@H]3N)ncc2C(N)=O)c1.Cl: NO
- COc1cc(Nc2nccc(N3CCC(NS(=O)(=O)c4ccc(NC(C)=O)cc4)CC3)n2)cc(OC)c1OC: NO

### Prompt API: query returns whether the compound falls strictly under 60% in %Inh. Query: COc1ccc(C2=C(Nc3cccc(O)c3)C(=O)NC2=O)cc1
### Response YES

### Prompt Also check Cc1ccc(NC(=O)c2cccc(N3CCCCC3)c2)cc1-c1ccc(C(=O)NCC2CC2)cc1
### Response YES

---

test system: ERBB4; conditions: concentration: 1 μM, replicates: in singlicate; n = 1
// boundary case: %Inh equal to 7% maps to no; strictly smaller maps to yes

Answered examples (5):
- CC(C)NCC(Cc1ccccc1)NC(=O)c1cc(Br)c(-c2ccnc3[nH]ccc23)s1.Cl.Cl (stereo not shown): no
- Cc1ccc(-c2ccc3occ(-c4ccc(S(C)=O)cc4)c3c2)nn1 (stereo not shown): yes
- CN(c1ccc(F)c(NC(=O)c2cccc(OC(C)(C)C#N)c2Cl)c1)c1ccc2nc(NC(=O)C3CC3)sc2n1: no
- CN(C)CCOc1ccc(-c2cc(-c3ccc(Cl)c(O)c3)c(-c3ccncc3)[nH]2)cc1.Cl.Cl: no
- CC(C)c1nc(-c2ccc(F)c(NS(=O)(=O)c3c(F)cccc3F)c2)c(-c2ccnc(Nc3ccc(N4CCOCC4)nc3)n2)s1: no

Let's switch to this molecule now.
### Prompt API: query returns whether the molecule falls strictly under 7% in %Inh. Query: CN(c1ccc(NC(=O)N2CCN(CCCN3CCOCC3)CC2)cc1)c1ccnc(Nc2ccc(CS(C)(=O)=O)cc2)n1.Cl
### Response yes

---

Provide the reported %Inh of each item.
test system: NEK4; conditions: concentration: 1 μM, replicates: in singlicate; n = 1
Numbers only, in %.

Provide %Inh for all items below, preserving their order.
1. COc1ccc(NC(=O)c2ccoc2)cc1-c1ccc(C(=O)NCC2CC2)cc1
2. Cl.O=C(Nc1ccc(Oc2ccc3[nH]c(NC(=O)c4ccco4)nc3c2)cc1)Nc1cc(C(F)(F)F)ccc1F
3. COc1cc(Nc2nccc(N3CCC(NS(=O)(=O)c4ccc(NC(C)=O)cc4)CC3)n2)cc(OC)c1OC
4. Cc1ccc(Nc2ccnc(Nc3ccc(C)c(F)c3)n2)cc1O.Cl

### Response
[0, 0, 3, 7]

Provide %Inh for all items below, preserving their order.
1. COC(=O)Nc1nc2cc(Oc3ccc(NC(=O)Nc4cccc(SC)c4)cc3)ccc2[nH]1.Cl
2. COC(=O)Nc1nc2ccc(Oc3ccc(NC(=O)Nc4cc(C(F)(F)F)ccc4F)cc3)cc2[nH]1.Cl
3. COc1cc(Nc2ccnc3cc(-c4ccncc4)ccc23)cc(OC)c1OC.Cl
4. O=C(Nc1n[nH]c2nc(-c3ccccc3O)ccc12)C1CC1

### Response
1. 4
2. 0
3. 0
4. 0

Provide %Inh for all items below, preserving their order.
1. c1ccc(Oc2ccc(Nc3ccnc4cc(-c5ccc(CN6CCCCC6)o5)ccc34)cc2)nc1
2. O=C(Nc1n[nH]c2nc(-c3cccc(O)c3)ccc12)C1CC1
3. CCn1c(-c2nonc2N)nc2c(-c3ccccc3)ncc(OCCCN)c21.O=C(O)C(F)(F)F.O=C(O)C(F)(F)F
4. CC(=O)Nc1cn2nc(Oc3cccc(NC(=O)c4cccc(C(F)(F)F)c4)c3)ccc2n1

### Response
1. 25
2. 0
3. 21
4. 0

---

test system: SGK2; settings: concentration: 1 μM, replicates: in singlicate; n = 1
READOUT: %Inh (%)
Answers are plain numbers, in %.

Provide %Inh for all items below, preserving their order.
1. Cc1ccc(O)cc1Nc1ccnc2cc(-c3ccc(CN4CCCCC4)o3)ccc12
2. CN(c1ccc(NC(=O)Nc2cccc(Cl)c2)cc1)c1ccnc(N)n1.Cl
3. COC(=O)Nc1nc2ccc(Oc3ccc(CC(=O)Nc4cc(C(F)(F)F)ccc4F)cc3)cc2[nH]1
4. CCn1cnc2c(NCc3ccccc3)ncnc21
5. Cc1nn2c(=O)cc(N3CCO[C@H](C)C3)nc2n1Cc1cccc(Cl)c1Cl

### Response
0
0
4
2
1

---

Provide the reported %Inh of each item.
system: MYO3B; conditions: concentration: 1 μM, replicates: in singlicate; n = 1
Answer format: number, then unit.

Observe how each entry below is paired with its result.
- Cc1ccc(NC(=O)c2cccc(N3CCCCC3)c2)cc1-c1ccc(C(=O)NCC2CC2)cc1: 12%
- Fc1cc(Cl)ccc1Nc1ccnc2cc(-c3ccc(CN4CCSCC4)o3)ccc12: 0%
- COc1ccc(NC(=O)c2ccoc2)cc1-c1ccc(C(=O)NCC2CC2)cc1: 21%
- Nc1ncnc2scc(-c3ccc(NC(=O)Cc4cc(F)ccc4F)cc3)c12.O=C(O)C(F)(F)F: 0%
- COC(=O)Nc1nc2ccc(Oc3ccc(CC(=O)Nc4cc(C(F)(F)F)ccc4F)cc3)cc2[nH]1: 0%

Provide %Inh for all items below, preserving their order.
1. COc1cccc(C2=C(Nc3cccc(O)c3)C(=O)NC2=O)c1
2. CCOc1nccc(-c2c(-c3ccc(F)cc3)ncn2C2CCNCC2)n1
3. Cc1ccc(NC(=O)c2ccnc(N3CCCCC3)c2)cc1-c1ccc(C(=O)NCC2CC2)cc1

### Response
1: 0%; 2: 0%; 3: 3%

---

Provide the reported %Inh of each item.
test system: AURKB; conditions: concentration: 1 μM, replicates: in singlicate; n = 1
Answer format: number, then unit.

Observe how each entry below is paired with its result.
• CC(C)c1nc(-c2ccc(F)c(NS(=O)(=O)c3c(F)cccc3F)c2)c(-c2ccnc(Nc3ccc(N4CCOCC4)nc3)n2)s1 [GSK1804250] = 29%
• Nc1ncc(-c2cn[nH]c2)c2scc(-c3ccc4c(c3)CCN4C(=O)Cc3ccccc3)c12 [GSK2593067] = 98.6%
• CN1CCN(Cc2ccc(NC(=O)Nc3ccc(N(C)c4ccnc(Nc5ccc(CS(C)(=O)=O)cc5)n4)cc3)cc2)CC1.Cl [GW827654] = 99.7%
• Cn1cc(-c2ccc3c(c2)CCN3C(=O)Cc2cc(F)cc(F)c2F)c2c(N)ncnc21 [GSK2634140] = 92.6%
• COc1cc(Nc2nccc(N3CCC(NC(=O)Nc4ccc5c(c4)OCO5)C3)n2)cc(OC)c1OC (stereo not shown) [GSK1379766] = 69%

Provide %Inh for all items below, preserving their order.
1. O=C(O)C(F)(F)F.O=c1[nH]ccc2nc(N[C@@H]3CCNC3)nc(Nc3ccc4c(c3)S(=O)(=O)CC4)c12 [GSK2181306]
2. CSc1ccc(NC2=C(c3ccc(Cl)cc3)C(=O)NC2=O)cc1 [SB-317658]

### Response
72%
9%

---

test system: PIP5K2B; settings: concentration: 1 μM, replicates: in singlicate; n = 1
READOUT: %Inh (%)
Numbers only, in %.

Provide %Inh for all items below, preserving their order.
1. CCNC(=O)/C=C/c1n[nH]c2cc(Sc3ccccc3C(=O)NC)ccc12
2. CN(C)CCNS(=O)(=O)c1ccc(-c2ccnc3[nH]ccc23)cc1 [GSK977620]
3. Nc1ncc(-c2cn[nH]c2)c2scc(-c3ccc4c(c3)CCN4C(=O)Cc3ccccc3)c12 [GSK2593067]
4. CC(=O)Nc1cn2nc(Oc3cccc(NC(=O)c4cccc(C(F)(F)F)c4)c3)ccc2n1
5. COc1cccc(CC(=O)N2CCc3cc(-c4cn(C)c5ncnc(N)c45)ccc32)c1 [GSK2608899]

### Response
[33, 0, 0, 0, 34]

Provide %Inh for all items below, preserving their order.
1. CC(C)c1nc(-c2ccc(F)c(NS(=O)(=O)c3c(F)cccc3F)c2)c(-c2ccnc(Nc3ccc(N4CCOCC4)nc3)n2)s1 [GSK1804250]
2. Cc1cc(-c2ccnc(Nc3cccc(C#N)c3)n2)cc(C)c1O [GSK1440913]

### Response
[9, 61]

Provide %Inh for all items below, preserving their order.
1. COc1cc(Nc2nccc(N3CCC(NC(=O)Nc4ccc5c(c4)OCO5)C3)n2)cc(OC)c1OC (stereo not drawn) [GSK1379766]
2. O=C(Nc1n[nH]c2nc(-c3ccccc3)ccc12)C1CC1 [SB-708999]

### Response
0
12

Provide %Inh for all items below, preserving their order.
1. CCOc1nccc(-c2c(-c3ccc(F)cc3)ncn2C2CCNCC2)n1 [SB-249175]
2. Nc1cccc(-c2ccc3c(N)n[nH]c3c2)c1 [GSK2193613]
3. O=C(Nc1n[nH]c2nc(-c3cccc(O)c3)ccc12)C1CC1 [SB-711805]

### Response
[0, 0, 8]

---

tested on: TNK2; conditions: concentration: 1 μM, replicates: in singlicate; n = 1
READOUT: %Inh (%)
One number for each entry, in %.

- CN(c1ccc(NC(=O)Nc2cccc(Cl)c2)cc1)c1ccnc(N)n1.Cl: 3

Provide %Inh for all items below, preserving their order.
1. COc1cc(Nc2nccc(N3CCC(NC(=O)Nc4ccc5c(c4)OCO5)C3)n2)cc(OC)c1OC (stereo not drawn)
2. CN(c1ccc(F)c(NC(=O)c2cccc(OC(C)(C)C#N)c2Cl)c1)c1ccc2nc(NC(=O)C3CC3)sc2n1
3. CC(C)(C)c1ccc(C(=O)Nc2cn3cc(-n4ccnc4)ccc3n2)cc1
4. COc1cccc(C2=C(Nc3cccc(O)c3)C(=O)NC2=O)c1
5. N#Cc1cnc2cc(-c3cnc(CNCCN4CCOCC4)s3)ccc2c1Nc1ccc(Oc2ccccc2)cc1
6. COc1cccc(-c2nc(-c3ccccc3)[nH]c2-c2ccncc2)c1
7. O=C(O)C(F)(F)F.O=c1[nH]ccc2nc(N[C@@H]3CCNC3)nc(Nc3ccc4c(c3)S(=O)(=O)CC4)c12

### Response
1. 9
2. 0
3. 0
4. 15
5. 94.6
6. 8
7. 3

### Prompt Give its %Inh value. Item: O=C(Nc1n[nH]c2nc(-c3cccc(O)c3)ccc12)C1CC1
### Response 0
